# test system: T1, PF4/heparin complex (human PF4 complexed with heparin) (human, UniProt P02776 32-101)
# T1 sequence: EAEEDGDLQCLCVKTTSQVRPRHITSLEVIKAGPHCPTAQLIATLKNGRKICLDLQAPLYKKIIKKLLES
# experimental details: cell-based or functional assay
Reported % inhibition of 14C-serotonin release (SRA), HIT-Positive Patient #1 serum, scFv 50 µg/mL values for a set of binders
Answer format: numeric, % implied, no suffix.

Mutant F scFv, scFv(E183V, E186K, G223R) (scFv, VL-linker-VH; histidine-tagged, from E. coli BL21; also called Mut F; not shown: histidine tag from the pADL-22c vector) scFv: DIQMIQSQKFMSTSVGDRVTVTCKASQNVGTNVAWYQQKPGQSPNALIYSASYRYSGVPDRFTGSGSGTDFTLTITNVQSEDLADYFCQQYNSYPLTFGTGTKLDLKGGGGSGGGGSGGGGSVQLQQSGAELVKPGASVKLSCKASGYTFTNYFIYWVKQRPGQGLEWIGEINPRNGDTDFNVKFKSRATLTVDKSSSTAYMQLSSLTSEDSAIYYCTRSPYRNNYGFTYWGQGTLVTVSA    97.8
Mutant B scFv, scFv(R18K, N152K, D180N) (scFv, VL-linker-VH; histidine-tagged, from E. coli BL21; also called Mut B; not shown: histidine tag from the pADL-22c vector) scFv: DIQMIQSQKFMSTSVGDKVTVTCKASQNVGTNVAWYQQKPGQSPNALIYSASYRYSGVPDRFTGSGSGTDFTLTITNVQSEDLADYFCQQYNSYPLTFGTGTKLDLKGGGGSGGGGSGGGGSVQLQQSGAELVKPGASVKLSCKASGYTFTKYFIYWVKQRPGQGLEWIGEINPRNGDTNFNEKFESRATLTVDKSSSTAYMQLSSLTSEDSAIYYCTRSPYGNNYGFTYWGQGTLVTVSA    71.1

Here's the next entry for you.
Consider the binder shown here: Mutant E scFv, scFv(Y156H, D180G, Q233P) (scFv, VL-linker-VH; histidine-tagged, from E. coli BL21; also called Mut E; not shown: histidine tag from the pADL-22c vector) scFv: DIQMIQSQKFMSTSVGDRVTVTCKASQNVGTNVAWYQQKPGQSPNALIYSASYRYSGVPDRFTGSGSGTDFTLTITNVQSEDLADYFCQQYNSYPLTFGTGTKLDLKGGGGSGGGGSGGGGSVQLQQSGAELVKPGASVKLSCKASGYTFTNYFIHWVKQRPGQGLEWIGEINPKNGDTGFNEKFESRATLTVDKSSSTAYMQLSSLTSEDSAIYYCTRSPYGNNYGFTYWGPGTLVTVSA What is its recorded % inhibition of 14C-serotonin release (SRA), HIT-Positive Patient #1 serum, scFv 50 µg/mL?
14.4
